# testDetails: chemical genetic growth profiling, strain panel (AID 1159580);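 also: tested at 20 µM; growth read once vehicle control cultures reached saturation at 30 °C; lower values mean less growth of the strain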
# testConditions: S. cerevisiae deletion strains, growth OD, locus YNL067W, strain RPL9B
The campaign covered roughly 5,500 compounds. About 2,000 (36%) were called active. Roughly 18% stayed inconclusive and do not appear here. Rule as the data show it: active = normalized growth mostly below about 0.91 (no sharp cut-off); inconclusive = no clear call, values can overlap the other calls; inactive = mostly above about 0.92. The list shows a part of the results.
Bench note: report the call from active, inactive

**Q:** For this compound, state the assay outcome: CNC(C)[C@H](O)c1ccccc1 (stereo partly specified)
**A:** inactive

**Q:** For this compound, state the assay outcome: `Cc1c(O)c(C(=O)CC(C)C)c2oc3c(C(=O)CC(C)C)c(O)c(C)c(O)c3c2c1O`
**A:** inactive

**Q:** For this compound, state the assay outcome: `CCN(CC)CCNC(=O)c1cc(Br)c(N)cc1OC`
**A:** inactive

**Q:** For this compound, state the assay outcome: `COc1cc(NS(=O)(=O)c2ccc(N)cc2)nc(OC)n1`
**A:** inactive

**Q:** For this compound, state the assay outcome: `COc1cc2c(cc1OC)[C@@H]1C(=O)c3ccc4c(c3O[C@@H]1CO2)C=CC(C)(C)O4`
**A:** inactive

**Q:** For this compound, state the assay outcome: `CN[C@@H](C)[C@@H](O)c1ccccc1`
**A:** inactive

**Q:** For this compound, state the assay outcome: `O=C1C=CC(=C(c2ccc(O)cc2)c2ccc(O)cc2)C=C1`
**A:** inactive

**Q:** For this compound, state the assay outcome: `COc1ccc2c(c1OC)C(=O)O[C@@H]2[C@H]1c2cc3c(cc2CCN1C)OCO3`
**A:** inactive

**Q:** For this compound, state the assay outcome: C=C1C([C@]2(C)C(CC(=O)OC)[C@@](C)(COC(C)=O)OC(=O)C[C@@H]2OC(C)=O)[C@@H](OC=O)[C@H](OC(=O)C(O)C(C)CC)[C@@]2(C)[C@H](c3ccoc3)CC(=O)C12O (stereo partly specified)
**A:** inactive

**Q:** For this compound, state the assay outcome: `S=c1nc[nH]c2nc[nH]c12`
**A:** inactive

**Q:** For this compound, state the assay outcome: CCCCCCCCNC(C)C(O)c1ccc(SC(C)C)cc1 (stereo unspecified)
**A:** active

**Q:** For this compound, state the assay outcome: `CC(C)(OC(=O)c1ccccc1)[C@@H]1Cc2cc3ccc(=O)oc3cc2O1`
**A:** inactive

**Q:** For this compound, state the assay outcome: NCC1CCC(C(=O)O)CC1 (stereo unspecified)
**A:** inactive

**Q:** For this compound, state the assay outcome: CN1CCCN=C1COC(=O)C(O)(c1ccccc1)C1CCCCC1 (stereo unspecified)
**A:** inactive

**Q:** For this compound, state the assay outcome: `COc1cc2c(cc1OC)[C@@H]1C(=O)c3ccc(O)c(CC=C(C)C)c3O[C@@H]1CO2`
**A:** inactive

**Q:** For this compound, state the assay outcome: ClC1=C(Cl)C2(Cl)C3C4C=CC(C4)C3C1(Cl)C2(Cl)Cl (stereo unspecified)
**A:** inactive

**Q:** For this compound, state the assay outcome: CCC(C)C(OC(C)=O)C(=O)OC1C(O)C2C3(C)C=CC(=O)C(C)(C)C3CC(OC(=O)C(O)C(C)C)C2(C)C23OC2CC(c2ccoc2)C13C (stereo unspecified)
**A:** inactive

**Q:** For this compound, state the assay outcome: `CN(C)c1ccc(C(=C2C=CC(=[N+](C)C)C=C2)c2ccc(N(C)C)cc2)cc1`
**A:** active

**Q:** For this compound, state the assay outcome: `C[C@@H]1[C@H]2[C@H](O[C@@H]3O[C@H](CO)[C@@H](O)[C@H](O)[C@H]3O)OC=C(C(=O)O)[C@H]2C[C@@H]1O`
**A:** inactive

**Q:** For this compound, state the assay outcome: CCOC(=O)C(=O)C1(C(=O)OCC)Oc2cc(OC)cc(OC)c2C(=O)C1c1ccccc1 (stereo unspecified)
**A:** inactive

**Q:** For this compound, state the assay outcome: `O=C(O)c1cc2ccccc2[nH]1`
**A:** inactive
